Measured values drawn from patent US20260132197A1 for this set.

# Target Of Assay: T1, human CD47 on cells (SHP-77 tumor cells, human red blood cells, CCRF-CEM cells, human CD47 CHO-K1 stable cell … (human, UniProt Q08722 19-323))
# T1 construct: whole, on cells; also called RBC
# Experimental Details: flow cytometry on human CD47 CHO-K1 cells; plateau not reached, not accurate
Reported EC50 values follow for various binders

{"Binder": "108VH10.Mq / 108VL10.Me (antibody, V domains shown, 4D5-framework series; constant regions not restated for this series; also called VH10.Mq VL10.Me) VH: EVQLVESGGGLVQPGGSLRLSCAASGFTFSHHWIHWVRQAPGKGLEWVAMIDASDSETRLSDSVKGRFTISADTSKNTAYLQMNSLRAEDTAVYYCSRLGRYYFDYWGQGTLVTVSS VL: DIQMTQSPSSLSASVGDRVTITCRASQSISSYLNWYQQKPGKAPKLLIYGASSRYSGVPSRFSGSRSGTDFTLTISSLQPEDFATYYCGESYGHLYTFGQGTKVEIK", "Units": "µM", "EC50": 0.0064}
{"Binder": "108VH5.M6 / 108VL1.M5 (antibody, human IgG4 S228P, kappa, V domains shown, Full-length IgG4 (S228P), kappa; also called VH5.M6 VL1.M5) VH: EVQLVQSGAEVKKPGASVKVSCKASGYTFTHHYMHWVRQAPGQGLEWMGMIDASDSETRLSQKFKDRVTMTRDTSTSTVYMELSSLRSEDTAVYYCARLGRYYFDYWGQGTLVTVSS VL: EIVLTQSPATLSLSPGERATLSCRASQSVSSYLAWYQQKPGQAPRLLIYGASNRATGIPARFSGSGSGTDFTLTISSLEPEDFAVYYCGESYGHLYTFGGGTKVEIKR", "Units": "µM", "EC50": 0.02}
{"Binder": "108VH10.Mr / 108VL10.Me (antibody, V domains shown, 4D5-framework series; constant regions not restated for this series; also called VH10.Mr VL10.Me) VH: EVQLVESGGGLVQPGGSLRLSCAASGFTFSHHWIHWVRQAPGKGLEWVAMIDASDSETRLVDSVKGRFTISADTSKNTAYLQMNSLRAEDTAVYYCSRLGRYYFDYWGQGTLVTVSS VL: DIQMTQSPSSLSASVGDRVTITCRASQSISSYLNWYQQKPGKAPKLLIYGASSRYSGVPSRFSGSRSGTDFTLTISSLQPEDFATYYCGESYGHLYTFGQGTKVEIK", "Units": "µM", "EC50": 0.0157}
